# Lookup of reported pKd keyed by entry
target-desc: T1, recombinant human cardiac troponin T (human, UniProt P45379 2-298)
T1 construct: In the ECL assay the cTnT came from the Troponin T hs CalSet calibrator; also called cTnT; TnT
run-description: SPR (Biacore T200, 37 C), Fab captured, cTnT analyte
Answer as the number alone; pKd is minus log10 of concentration in mol/L.

anti-cTnT Fab mutant 5 (Y34F, F60W, V101Y + Y104F) (Fab, V domains shown, also called combination 5) VH: EVQLQQSGPELVKPGASVKMSCKASGYTFTDYFMKWVKQSHGKSLEWIGDINPNNGETWYNQKFKDKATLTVDKSSSTAYMQLNSLTSEDSAVYYCATRYFDFWGQGTTLTVSS VL: DIVLTQSPASLAVSLGQRATISCKASQSVDYDGTSYMNWFQQKAGQPPKRLIYAASNLESGIPARFSGRGSGTDFALNIHPVEEEDAATYYCQQSNEDPYTFGGGTKLEIK    9.64

The reported value for anti-cTnT Fab mutant 18 (V101Y) (Fab, V domains shown, it was tied to mutant 18 by the printed mutation V101Y; also called combination 18) VH: EVQLQQSGPELVKPGASVKMSCKASGYTFTDYYMKWVKQSHGKSLEWIGDINPNNGETFYNQKFKDKATLTVDKSSSTAYMQLNSLTSEDSAVYYCATRYFDYWGQGTTLTVSS VL: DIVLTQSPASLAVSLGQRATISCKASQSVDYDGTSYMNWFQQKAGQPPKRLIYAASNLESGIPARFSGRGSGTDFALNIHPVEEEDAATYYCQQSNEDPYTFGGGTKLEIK in terms of pKd is 8.80

The reported value for anti-cTnT Fab mutant 19 (Y104F) (Fab, V domains shown, also called combination 19) VH: EVQLQQSGPELVKPGASVKMSCKASGYTFTDYYMKWVKQSHGKSLEWIGDINPNNGETFYNQKFKDKATLTVDKSSSTAYMQLNSLTSEDSAVYYCATRVFDFWGQGTTLTVSS VL: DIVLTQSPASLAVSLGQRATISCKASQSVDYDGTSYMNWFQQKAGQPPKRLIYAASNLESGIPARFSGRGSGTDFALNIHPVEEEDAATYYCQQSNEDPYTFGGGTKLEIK in terms of pKd is 9.34

The reported value for anti-cTnT Fab mutant 17 (F60W) (Fab, V domains shown, also called combination 17) VH: EVQLQQSGPELVKPGASVKMSCKASGYTFTDYYMKWVKQSHGKSLEWIGDINPNNGETWYNQKFKDKATLTVDKSSSTAYMQLNSLTSEDSAVYYCATRVFDYWGQGTTLTVSS VL: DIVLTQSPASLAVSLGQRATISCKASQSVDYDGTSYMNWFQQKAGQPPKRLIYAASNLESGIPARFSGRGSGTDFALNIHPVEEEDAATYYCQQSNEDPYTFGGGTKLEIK in terms of pKd is 9.27
